Tested on: MDA-MB-231 breast
Assay: NCI tumour cell line growth inhibition, 48 h
TGI for assorted molecules
Enter your answer as a number in µM; do not include the unit.

Q: Supply reported TGI belonging to this molecule: O=C(O)C(Cc1cc(I)c(O)c(I)c1)C1CCCCC1 (stereo not given)
A: 72.5

Q: # return recorded TGI for entry CCN(Cc1ccc(OC)cc1)c1ccc(CO)c(Cl)c1
A: 61.3

====

Test system: TK-10 renal
Assay: NCI tumour cell line growth inhibition, 48 h
quantity kind: TGI

// worked examples, TGI included
>  <compound>
C/C(=C\C(=O)O[C@H]1[C@@H]2[C@H](C)CC[C@H]2[C@]2(C)O[C@@]1(C1CCCCC1)C[C@H]2OC(=O)CO)c1ccccc1

>  <result>
14.7 µM

$$$$
>  <compound>
CN(Cc1cnc2nc(N)nc(N)c2n1)c1ccc(C(=O)NCCCS(=O)(=O)O)cc1

>  <result>
> 100 µM

$$$$
>  <compound>
COc1ccc(N2C(=O)c3cc([N+](=O)[O-])cnc3S2(=O)=O)cc1

>  <result>
> 100 µM

$$$$

Q: Identify the reported TGI for the following entry. COc1cc2nc3n(c2cc1OC)C(O)c1c(Cl)nc(SC)nc1S3 (stereo not drawn)
A: > 74 µM

Q: Annotate the compound Cc1cccc2cc(/C=C/C(=O)/C=C/c3ccc(Cl)cc3)c(=O)[nH]c12 with its measured TGI.
A: > 100 µM

Q: Provide TGI value for the following compound: COc1cc2cc(NCc3cccc(Cl)c3)nc(C)c2cc1OC
A: 36.6 µM

Q: State its TGI for this compound: O=C(O)/C=C/c1ccc(O)c(O)c1
A: > 100 µM

Q: Write down TGI measured for item COc1cc([C@@H]2c3cc4c(cc3[C@H](OC3OC5COC(c6ccco6)OC5C(O)C3O)C3COC(=O)[C@@H]32)OCO4)cc(OC)c1OC (stereo partly drawn)
A: > 100 µM

Q: Supply recorded TGI for CCN(CC)CC(=O)NC1c2ccccc2Oc2ccccc21 here.
A: > 100 µM

Q: Please report TGI for the following compound: CC[C@@]1(OP(=O)(O)O)C(=O)OCc2c1cc1n(c2=O)Cc2cc3ccccc3nc2-1
A: 88 µM

Q: Look up TGI of CC(C)=CCc1cc2c(cc1O)C1=C(C(=O)C3=C(NCCS3(=O)=O)C1=O)C(C=C(C)C)O2 (stereo not drawn) and report it.
A: > 16.7 µM

====

Tested on: MALME-3M melanoma
Experiment: NCI tumour cell line growth inhibition, 48 h
quantity kind: GI50

>  <compound>
CC[C@@]1(OP(=O)(O)O)C(=O)OCc2c1cc1n(c2=O)Cc2cc3ccccc3nc2-1

>  <quantity kind>
GI50

>  <result>
1.09 µM

$$$$
>  <compound>
CN1CCN(Cc2ccc(NC(=O)c3cncc(C#Cc4cnc(N)c5ncccc45)c3)cc2C(F)(F)F)CC1

>  <quantity kind>
GI50

>  <result>
0.131 µM

$$$$
>  <compound>
COC(=O)c1c2c(c(C)[n+]([O-])c1C)C(=O)C(NCc1ccc(OC)cc1)=CC2=O

>  <quantity kind>
GI50

>  <result>
0.28 µM

$$$$

Q: Send back MALME-3M melanoma GI50 of CCOc1ccc(N(C)c2ccc(/C=C/C3=[N+](C)c4ccccc4C3(C)C)cc2)cc1 only.
A: 0.184 µM

Q: Report GI50 under test system MALME-3M melanoma for Nc1ccc(/C=C/c2ccc3ncccc3c2)cc1 .
A: > 100 µM

Q: Look up MALME-3M melanoma data: GI50 of COc1ccc(C2=NN(C(N)=S)C(c3ccc4c(c3)OCO4)C2)cc1 (centres undefined) , then report it.
A: 3.62 µM

Q: Provide the reported GI50 (system: MALME-3M melanoma) for N#CC1=C(N)Oc2c(sc3c(Br)cccc23)C1c1ccc([N+](=O)[O-])cc1 (centres undefined)
A: 1.08 µM

Q: For MALME-3M melanoma, give the measured GI50 of the entry CCN1CCN(CCC(=O)Nc2cccc(-n3cc(-c4ccncc4)c(-c4ccc(Cl)c(OC)c4)n3)c2)CC1
A: 0.765 µM

Q: Jot down GI50 (MALME-3M melanoma) of CC(C)=CC[C@@H]1CC2(CC=C(C)C)C(=O)C(OC3(C(=O)c4ccccc4)C(=O)C4(CC=C(C)C)C[C@@H](CC=C(C)C)C(C)(C)C(CC=C(C)C)(C4=O)C3=O)(C(=O)c3ccccc3)C(=O)C(CC=C(C)C)(C2=O)C1(C)C (some centres undefined) .
A: 0.901 µM

Q: Recall the reported GI50 of O=C1NC(=O)C(c2c[nH]c3ccccc23)=C1c1c[nH]c2ccccc12 on MALME-3M melanoma and write it down.
A: > 14.7 µM

Q: State GI50 on MALME-3M melanoma. Entry: O=[N+]([O-])c1ccc(C2=NCCO2)cc1
A: > 100 µM

Q: Specify the recorded GI50 for COc1cccc2c1nc(C(F)F)n2-c1nc(-c2ccc(NS(=O)(=O)CCN(C)C)cc2)nc(N2CCOCC2)n1 , system: MALME-3M melanoma.
A: 0.0333 µM

Q: Please respond with reported GI50 (system MALME-3M melanoma) for CC(=O)/C(=C\c1ccc(Cl)cc1)c1ccccc1 .
A: 43.2 µM

Q: State measured GI50 of the compound CC1(C)N=C(N)N=C(N)N1c1ccc(OCCCNC(=O)Nc2ccc(S(=O)(=O)F)cc2)c(Cl)c1 with MALME-3M melanoma.
A: 2.02 µM

Values from PubChem BioAssay (NCI)
